Tested on: Mus musculus
Test: Anticonvulsant activity in mouse assessed as inhibition of pentylenetetrazole-induced seizure at 100 to 300 mg/kg
Type: functional, organism-based
Activity calls are given as the source filed them. The calls are words filed in the database; no cut-off is given here.

Compound	Target entity	Activity
CC1CC(=O)C=C(Nc2ccc(F)cc2)C1 (stereo not drawn)	Mus musculus	Active
COC(=O)C1C(=O)C=C(Nc2ccc(C(F)(F)F)cc2)CC1C (stereo not drawn)	Mus musculus	Active
COc1ccc(N/C(C)=C/C(C)=O)cc1	Mus musculus	Active
CC1CC(=O)C=C(Nc2ccc(OC(F)(F)F)cc2)C1 (stereo not drawn)	Mus musculus	Active
CCc1ccc(N/C(C)=C/C(C)=O)cc1	Mus musculus	Active
COC(=O)C1C(=O)C=C(Nc2ccc(Cl)cn2)CC1C (stereo not drawn)	Mus musculus	Active
COC(=O)C1C(=O)C=C(Nc2ccc(Cl)cc2)CC1(C)C (stereo not drawn)	Mus musculus	Active
CCOC(=O)C1C(=O)C=C(Nc2ccc(F)cc2)CC1C (stereo not drawn)	Mus musculus	Active
CCOC(=O)C1C(=O)C=C(Nc2ccc(Cl)cn2)CC1C (stereo not drawn)	Mus musculus	Active
CC(=O)/C=C(\C)Nc1ccc(Cl)cc1	Mus musculus	Active
COC(=O)C1C(=O)C=C(Nc2ccc(OC(F)(F)F)cc2)CC1C (stereo not drawn)	Mus musculus	Active
COC(=O)C1C(=O)C=C(Nc2ccc(F)cc2)CC1C (stereo not drawn)	Mus musculus	Active
CCOC(=O)C1CCC(Nc2cccc(OC(F)(F)F)c2)=CC1=O (stereo not drawn)	Mus musculus	Active
